Conditions: in n-hexane, 318.15 K
MEASURED_PROPERTY: solubility (mole fraction)
Lab note: record just the number, no unit beside it.

compound CCc1nnc(NC(=O)CCCCCNC(C)=O)s1 , solubility (mole fraction) observed: 4.13e-05

* * *

Conditions: in ethanol, 293.15 K
MEASURED_PROPERTY: solubility (mole fraction)
Lab note: record just the number, no unit beside it.

compound CCc1nnc(NC(=O)CCCCCNC(C)=O)s1 , solubility (mole fraction) observed: 0.000733

* * *

Conditions: in n-hexane, 293.15 K
MEASURED_PROPERTY: solubility (mole fraction)

compound CCc1nnc(NC(=O)CCCCCNC(C)=O)s1 , solubility (mole fraction) observed: 1.81e-05

These entries and their values trace back to BigSolDB 2.1.
